# Experiment notes: Thermodynamic solubility (24 h) at 37° C.
# Type: physicochemical
# Test parameters: simulated gastric fluid (SGF), 37 °C, pH 1.2, simulated gastric fluid, thermodynamic from solid, Simulated Gastric Fluid pH 1.2, 37° C., 24 h; read-out: Thermodynamic solubility SGF pH 1.2
Experimental readout: solubility thermodynamic at 24 h

Return the recorded solubility thermodynamic at 24 h value; entry: O=C(N[C@@H](Cc1coc2ccccc12)B(O)O)[C@@H]1C[C@H]2CC[C@@H]1O2 [Form NF2]
~700 µg/mL

----------
# Experiment notes: Thermodynamic solubility (24 h) at 37° C.
# Format: physicochemical
# Test parameters: fasted-state simulated intestinal fluid (FaSSIF), 37 °C, pH 6.5, fassif, thermodynamic from solid, Fasted-State Simulated Intestinal Fluid pH 6.5, 37° C., 24 h; read-out: Thermodynamic solubility FaSSIF pH 6.5
Experimental readout: solubility thermodynamic at 24 h

Return the recorded solubility thermodynamic at 24 h value; entry: O=C(N[C@@H](Cc1coc2ccccc12)B(O)O)[C@@H]1C[C@H]2CC[C@@H]1O2 [Form NF2]
~700 µg/mL
